Assay: Plasma pharmacokinetics of bimiralisib, non-compartmental analysis (LC-MS)
Format: in vivo, human
Conditions: human, plasma, oral, 100 mg, Intermittent Dose Schedule A, 100 mg, Day -3, 4 patients; read-out: Cmax Mean (%CV)
Method: Blood samples were collected to enable full PK profiling of bimiralisib. […] The pharmacokinetics of bimiralisib were determined by non-compartmental analysis. Area under the concentration vs. time curve (AUC) was calculated using the linear up log down trapezoidal method. Accumulation was calculated as the ratio of cycle 1 on Day 15 AUC0–8h versus cycle 1 on Day -3 AUC0–8h.
Measurement type: Cmax (ng/mL)
Return type: number; implicit unit ng/mL.

# input Would you kindly share the measured Cmax for Nc1cc(C(F)(F)F)c(-c2nc(N3CCOCC3)nc(N3CCOCC3)n2)cn1 ?
# output 543
